target-or-system: Toll-like receptor 1/2 (Homo sapiens, UniProt O60603+Q15399)
Sequence (O60603 whole entry): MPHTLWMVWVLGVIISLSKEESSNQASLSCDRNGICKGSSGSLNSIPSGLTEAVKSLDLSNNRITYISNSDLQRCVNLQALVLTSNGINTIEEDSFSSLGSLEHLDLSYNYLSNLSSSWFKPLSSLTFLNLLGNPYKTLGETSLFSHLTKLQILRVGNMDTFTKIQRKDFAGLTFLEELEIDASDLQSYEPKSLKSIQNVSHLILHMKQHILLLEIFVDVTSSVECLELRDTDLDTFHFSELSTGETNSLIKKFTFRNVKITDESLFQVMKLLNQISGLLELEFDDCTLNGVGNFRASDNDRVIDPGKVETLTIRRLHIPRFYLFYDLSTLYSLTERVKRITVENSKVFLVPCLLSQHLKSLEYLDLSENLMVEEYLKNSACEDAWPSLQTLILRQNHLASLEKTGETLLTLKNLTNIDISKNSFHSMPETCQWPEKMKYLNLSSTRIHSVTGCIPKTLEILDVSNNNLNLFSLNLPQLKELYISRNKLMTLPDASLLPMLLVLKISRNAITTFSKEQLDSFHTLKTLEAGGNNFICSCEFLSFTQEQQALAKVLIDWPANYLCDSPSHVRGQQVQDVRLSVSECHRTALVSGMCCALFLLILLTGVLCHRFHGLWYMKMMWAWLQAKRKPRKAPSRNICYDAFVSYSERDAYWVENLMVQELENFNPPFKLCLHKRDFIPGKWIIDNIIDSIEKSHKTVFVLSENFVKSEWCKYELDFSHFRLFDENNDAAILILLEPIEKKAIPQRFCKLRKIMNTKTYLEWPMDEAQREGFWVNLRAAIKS
Sequence (Q15399 whole entry): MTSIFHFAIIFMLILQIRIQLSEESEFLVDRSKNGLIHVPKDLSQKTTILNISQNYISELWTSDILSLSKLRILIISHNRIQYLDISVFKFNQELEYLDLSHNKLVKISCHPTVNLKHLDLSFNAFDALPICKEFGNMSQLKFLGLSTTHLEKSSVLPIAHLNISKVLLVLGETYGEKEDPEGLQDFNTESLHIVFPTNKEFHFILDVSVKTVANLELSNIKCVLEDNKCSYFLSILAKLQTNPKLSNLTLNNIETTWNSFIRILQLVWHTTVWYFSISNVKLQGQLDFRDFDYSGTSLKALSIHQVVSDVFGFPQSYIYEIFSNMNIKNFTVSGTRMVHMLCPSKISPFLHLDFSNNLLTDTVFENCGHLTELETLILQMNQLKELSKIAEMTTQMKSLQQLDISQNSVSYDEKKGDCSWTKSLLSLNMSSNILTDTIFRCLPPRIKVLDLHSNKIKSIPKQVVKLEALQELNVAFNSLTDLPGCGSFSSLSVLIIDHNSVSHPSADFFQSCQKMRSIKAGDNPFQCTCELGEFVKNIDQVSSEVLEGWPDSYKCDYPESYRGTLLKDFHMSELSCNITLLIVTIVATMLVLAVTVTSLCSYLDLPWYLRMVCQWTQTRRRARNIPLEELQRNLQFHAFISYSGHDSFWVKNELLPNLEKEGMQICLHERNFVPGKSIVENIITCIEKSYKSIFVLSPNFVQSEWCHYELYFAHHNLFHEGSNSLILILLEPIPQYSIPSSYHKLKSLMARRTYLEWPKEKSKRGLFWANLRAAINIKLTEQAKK
experiment: Agonist activity at TLR2/TLR1 in human THP-1 cells
Assay type: cell-based
Listed compounds paired with reported pEC50
Hey, just a heads up that pEC50 is the negative log base 10 of the concentration in molar.

{"smi": "COc1cc(C(=O)N2C[C@@H](C(=O)N[C@H]3C[C@@H]3c3ccccc3)[C@H](C(=O)N[C@H]3C[C@@H]3c3ccccc3)C2)ccc1C(=O)N1C[C@@H](C(=O)N[C@H]2C[C@@H]2c2ccccc2)[C@H](C(=O)N[C@H]2C[C@@H]2c2ccccc2)C1", "pEC50": 7.52}

IN: Query for Toll-like receptor 1/2 (Homo sapiens, UniProt O60603+Q15399): what pEC50 does the record show for O=C(N[C@H]1C[C@@H]1c1ccccc1)[C@@H]1CN(C(=O)c2ccc(-c3ccc(C(=O)N4C[C@@H](C(=O)N[C@H]5C[C@@H]5c5ccccc5)[C@H](C(=O)N[C@H]5C[C@@H]5c5ccccc5)C4)cc3)cc2)C[C@H]1C(=O)N[C@H]1C[C@@H]1c1ccccc1 ?
OUT: 7.05

* * *

target-or-system: Toll-like receptor 2 (Mus musculus)
experiment: Agonist activity at mouse TLR2 transfected in HEK293 cells relative to control
Format: cell-based
Design: concentration or dose not given beside the values
Listed molecules paired with reported Activity
Respond numerically; units are % and should not be typed.

Below: 6 molecules and their reported Activity.
{"molecule": "CCCCCC(=O)N[C@H](CSCC(COC(=O)CCCCC)OC(=O)CCCCC)C(=O)N[C@@H](CO)C(=O)N[C@@H](CCCCN)C(=O)N[C@@H](CCCCN)C(=O)N[C@@H](CCCCN)C(=O)N[C@@H](CCCCN)C(=O)O (some centres undefined)", "observation-type": "Activity", "units": "%", "value-measured": 0}
{"molecule": "CCCCCCCC(=O)OCC(CSC[C@@H](NC(=O)CCCCC)C(=O)N[C@@H](CO)C(=O)N[C@@H](CCCCN)C(=O)N[C@@H](CCCCN)C(=O)N[C@@H](CCCCN)C(=O)N[C@@H](CCCCN)C(=O)O)OC(=O)CCCCCCC (some centres undefined)", "observation-type": "Activity", "units": "%", "value-measured": 11}
{"molecule": "CCCCCC(=O)OCC(CSC[C@@H](NC(=O)Cc1ccccc1)C(=O)N[C@@H](CO)C(=O)N[C@@H](CCCCN)C(=O)N[C@@H](CCCCN)C(=O)N[C@@H](CCCCN)C(=O)N[C@@H](CCCCN)C(=O)O)OC(=O)CCCCC (some centres undefined)", "observation-type": "Activity", "units": "%", "value-measured": 0}
{"molecule": "CCCCCCCCCCCCCCCC(=O)N[C@H](CSCC(COC(=O)CC)OC(=O)CC)C(=O)N[C@@H](CO)C(=O)N[C@@H](CCCCN)C(=O)N[C@@H](CCCCN)C(=O)N[C@@H](CCCCN)C(=O)N[C@@H](CCCCN)C(=O)O (some centres undefined)", "observation-type": "Activity", "units": "%", "value-measured": 26}
{"molecule": "CCCCCCCCCC(=O)N[C@H](CSCC(COC(=O)CCCCCCC)OC(=O)CCCCCCC)C(=O)N[C@@H](CO)C(=O)N[C@@H](CCCCN)C(=O)N[C@@H](CCCCN)C(=O)N[C@@H](CCCCN)C(=O)N[C@@H](CCCCN)C(=O)O (some centres undefined)", "observation-type": "Activity", "units": "%", "value-measured": 11}
{"molecule": "CCCCCC(=O)N[C@H](CSCC(COC(=O)CC)OC(=O)CC)C(=O)N[C@@H](CO)C(=O)N[C@@H](CCCCN)C(=O)N[C@@H](CCCCN)C(=O)N[C@@H](CCCCN)C(=O)N[C@@H](CCCCN)C(=O)O (some centres undefined)", "observation-type": "Activity", "units": "%", "value-measured": 11}

IN: Using the record for CCCCCCCCCCCCCCCC(=O)N[C@H](CSCC(COC(=O)CCCCCCC)OC(=O)CCCCCCC)C(=O)N[C@@H](CO)C(=O)N[C@@H](CCCCN)C(=O)N[C@@H](CCCCN)C(=O)N[C@@H](CCCCN)C(=O)N[C@@H](CCCCN)C(=O)O (some centres undefined) , report its Activity.
OUT: 0

IN: Using the record for CCCCCCCCCCCCCCCC(=O)N[C@H](CSCC(COC(=O)CCCCC)OC(=O)CCCCC)C(=O)N[C@@H](CO)C(=O)N[C@@H](CCCCN)C(=O)N[C@@H](CCCCN)C(=O)N[C@@H](CCCCN)C(=O)N[C@@H](CCCCN)C(=O)O (some centres undefined) , report its Activity.
OUT: 0

IN: Using the record for CCCCCCCC(=O)OCC(CSC[C@@H](NC(=O)Cc1ccccc1)C(=O)N[C@@H](CO)C(=O)N[C@@H](CCCCN)C(=O)N[C@@H](CCCCN)C(=O)N[C@@H](CCCCN)C(=O)N[C@@H](CCCCN)C(=O)O)OC(=O)CCCCCCC (some centres undefined) , report its Activity.
OUT: 11

Recorded values, source ChEMBL document CHEMBL5226282.
